Every entry's value here was drawn from the Deep4Chem optical property database.

assay: solvent given as SMILES; details: in CCOC(C)=O
The following compounds are shown together with reported emission maximum values.
Supply the numeric figure in nm, leaving out any unit text.

Which measured emission maximum value corresponds to COC(=O)c1ccc(C#Cc2ccc(N(C)C)cc2)cc1 ?
470.5

Same question for Nc1ccc2cc(-c3ccc(C(F)(F)F)cc3)oc(=O)c2c1 please.
436

Same question for CC1=[N+]2C(=C(c3ccc(N(c4ccccc4)c4ccccc4)cc3)c3ccc(C)n3[B-]2(F)F)C=C1c1cc2n(c1)[B-](F)(F)[N+]1=CC=CC1=C2c1c(C)cc(C)cc1C please.
680

Same question for CCn1c2ccccc2c2c(C#N)c3c(ccc4c3cnn4C)nc21 please.
476

Same question for COc1cc(OC)c(C2=C3C(C)=CC(C)=[N+]3[B-](F)(F)n3c(C)cc(C)c32)c(OC)c1 please.
511

Same question for NS(=O)(=O)c1ccc(N2N=C(c3ccc(O)cc3)CC2c2ccccc2)cc1 (stereo not given) please.
416

Same question for CN(C)c1ccc(-c2cc3c(ccc4c([N+](=O)[O-])cccc43)c(=O)o2)cc1 please.
624

Same question for O=C1Nc2ccccc2/C1=C/C(=O)c1ccc(Cl)cc1 please.
395

Same question for COc1ccc(/C=C/C2=NC(=C\c3ccncc3)/C(=O)N2C)cc1 please.
566

Same question for Nc1ccc(-c2ccc(N)cc2)cc1 please.
391

Continuing:
Which measured emission maximum value corresponds to Oc1cccc(/N=C/c2ccccc2Oc2ccccc2)c1 ?
420

Same question for CC1=CC(C)=[N+]2C1=Cc1c3ccccc3c(C#Cc3ccccc3)n1[B-]2(F)F please.
618

Same question for NS(=O)(=O)c1ccc(N2N=C(c3ccc(O)cc3)CC2c2ccc(Cl)cc2)cc1 (stereo not given) please.
416

Same question for CN(C)c1ccc2nc(/C=C/c3cc4c5c(c3)CCCN5CCC4)c(=O)oc2c1 please.
628

Same question for c1ccc(-c2nc(-c3ccccc3)nc(-c3ccc(-n4c5ccccc5c5cc(-c6ccc7oc8ccccc8c7c6)ccc54)cc3)n2)cc1 please.
470

Same question for COc1cccc(OC)c1C1=C2C(C)=CC(C)=[N+]2[B-](F)(F)n2c(C)cc(C)c21 please.
520

Same question for CC(C)c1cc(C(C)C)c(B2c3cc(-n4c5ccccc5c5ccccc54)ccc3N(c3ccccc3)c3ccc(-n4c5ccccc5c5ccccc54)cc32)c(C(C)C)c1 please.
442.52

Same question for CCOC(=O)/C(C#N)=C\c1ccc2c(c1)c1ccccc1n2-c1ccc(C)cc1 please.
460

Same question for COc1ccc2oc(-c3cc4cc(OC)ccc4oc3=O)cc2c1 please.
443

Same question for CC(=O)Nc1ccc2c3c(cccc13)C(=O)c1ccccc1-2 please.
520.02

Same question for CN(C)c1ccc(/C=C/c2cc[n+](C)cc2)cc1 please.
595

Same question for COc1ccc(C2CC(c3ccc(O)cc3)=NN2c2ccc(S(N)(=O)=O)cc2)cc1 (stereo not given) please.
416

Same question for Cc1cc(=O)c2ccc(N)cc2o1 please.
378

Same question for CCC1=C(C)C2=Cc3cc(I)cn3[B-](F)(F)[N+]2=C1C please.
540.5

Same question for Cc1cccc(Nc2ccccc2C(=O)O)c1C please.
439

Same question for CCN(CC)c1ccc(-c2nc3c(c4c2-c2ccccc2CC4)-c2ccccc2CC3)cc1 please.
449

Same question for CCCCC(CC)Cn1c2cc(C#N)c(-c3ccc(N(c4ccccc4)c4ccccc4)cc3)cc2c2cc(-c3ccc(N(c4ccccc4)c4ccccc4)cc3)c(C#N)cc21 (stereo not given) please.
494
